Reference source for all entries: patent US8846669B2

Test system: Vancomycin Resistant Enterococcus faecalis
Assay: In vitro antibacterial activity, broth microdilution MIC90
Type: cell-based
Conditions: strain 6, E. faecalis VanA
Experimental: MIC90 was measured by broth microdilution method based on CLSI standards [reference: Clinical and Laboratory Standards Institute Document. (2000) Methods for Dilution Antimicrobial Susceptibility Test for Bacteria that Grow Aerobically-Fifth Edition: M7-A5. CLSI, Villanova, Pa.]. […]
EXPERIMENTAL ENDPOINT: MIC90 (µg/mL)
# number only, unit µg/mL dropped from output

In the examples that follow, each entry is paired with its recorded MIC90.
MOLECULE	MIC90 (µg/mL)
O=C(CO)N1CCN(c2ccc(-c3ccc(N4C[C@H](COc5ccon5)OC4=O)cc3F)cn2)C=N1	4
Cl.NCC(=O)N1CCN(c2ccc(-c3ccc(N4C[C@H](COc5ccon5)OC4=O)cc3F)cn2)C=N1	4
CN1CCN(c2ccc(-c3ccc(N4C[C@H](CNc5ccon5)OC4=O)cc3F)cn2)C=N1	1

Which MIC90 reading was recorded for the molecule `NCC(=O)N1CCN(c2ccc(-c3ccc(N4C[C@H](CNc5ccon5)OC4=O)cc3F)cn2)C=N1` ?
1

Which MIC90 reading was recorded for the molecule `O=C1O[C@@H](CNc2ccon2)CN1c1ccc(-c2ccc(N3C=NOCC3)nc2)c(F)c1` ?
0.5

Which MIC90 reading was recorded for the molecule `O=C(O)CN1CCN(c2ccc(-c3ccc(N4C[C@H](COc5ccon5)OC4=O)cc3F)cn2)C=N1` ?
4

Which MIC90 reading was recorded for the molecule `O=C1O[C@@H](CNc2ccon2)CN1c1ccc(-c2ccc(C3=NOCCN3)nc2)c(F)c1` ?
0.5

Which MIC90 reading was recorded for the molecule `O=C1O[C@@H](COc2ccon2)CN1c1ccc(-c2ccc(C3=NOCCN3)nc2)c(F)c1` ?
2

Which MIC90 reading was recorded for the molecule `CN1CCN(c2ccc(-c3ccc(N4C[C@H](COc5ccon5)OC4=O)cc3F)cn2)C=N1` ?
4

Which MIC90 reading was recorded for the molecule `Cl.O=C1O[C@@H](CNc2ccon2)CN1c1ccc(-c2ccc(N3C=NNCC3)nc2)c(F)c1` ?
1

Which MIC90 reading was recorded for the molecule `O=C(CO)N1CCN(c2ccc(-c3ccc(N4C[C@H](CNc5ccon5)OC4=O)cc3F)cn2)C=N1` ?
1

Which MIC90 reading was recorded for the molecule O=C(C(O)CO)N1CCN(c2ccc(-c3ccc(N4C[C@H](CNc5ccon5)OC4=O)cc3F)cn2)C=N1 (some centres unmarked) ?
1

Which MIC90 reading was recorded for the molecule O=C(C(O)CO)N1CCN(c2ccc(-c3ccc(N4C[C@H](COc5ccon5)OC4=O)cc3F)cn2)C=N1 (some centres unmarked) ?
4

Which MIC90 reading was recorded for the molecule `Cl.O=C1O[C@@H](COc2ccon2)CN1c1ccc(-c2ccc(N3C=NNCC3)nc2)c(F)c1` ?
4

====

tested on: Methicillin Resistant Staphylococcus epidermidis; test: In vitro antibacterial activity, broth microdilution MIC90; assay type: cell-based; details: Staphylococcus epidermidis
The reader will find reported MIC90 values listed item by item below.
# number only, unit µg/mL dropped from output

MOLECULE	MEASUREMENT TARGET	ENDPOINT VALUE
O=C1O[C@@H](Cn2ccnn2)CN1c1ccc(-c2ccc(N3C=NNCC3)nc2)c(F)c1 [Compound 30]	Methicillin Resistant Staphylococcus epidermidis	2
CC(=O)NC[C@H]1CN(c2ccc(-c3ccc(N4CCN(C(=O)CO)C=N4)nc3)c(F)c2)C(=O)O1 [Compound 54]	Methicillin Resistant Staphylococcus epidermidis	0.5
CNC(=O)N1CCN(c2ccc(-c3ccc(N4C[C@H](Cn5ccnn5)OC4=O)cc3F)cn2)C=N1 [Compound 34]	Methicillin Resistant Staphylococcus epidermidis	1

Okay, now this molecule:
Which MIC90 reading was recorded for the molecule CCN1CCN(c2ccc(-c3ccc(N4C[C@H](CNC(C)=O)OC4=O)cc3F)cn2)C=N1 [Compound 4] ?
1
